From: patent US20240051975A1

Test system: cell death induced by the NAMPT inhibitor FK866
protocolText: Protection against cell death induced by the NAMPT inhibitor FK866 (Celltiter-Glo, cellular ATP)
Format: cell-based
conditionParameters: AUC of dose-response curve (0.1-10 μM) relative to AUC of NAT; 10 nM FK866, 72 hours, cell viability by ATP
valueType: Relative cytoprotective activity

mol | valueType | measuredResult
CC(C)(C)c1cc(Cl)ccc1OCC(=O)Nc1ccc(O)cc1 | Relative cytoprotective activity | 1.099
CC(C)(C)c1cccc(OCC(=O)NCc2ccc(O)cc2)c1 | Relative cytoprotective activity | 0.1187
CC(C)(C)c1cc(Br)ccc1OCC(=O)Nc1ccc(O)cc1 | Relative cytoprotective activity | 1.285
Cc1cccc(C(C)(C)C)c1OCC(=O)Nc1ccc(O)cc1 | Relative cytoprotective activity | 0.571
CC(C)(C)c1cc(C#N)ccc1OCC(=O)Nc1ccc(O)cc1 | Relative cytoprotective activity | 1.569

* * *

targetSystem: NAMPT (Homo sapiens)
Sequence (P43490 whole entry, species assumed): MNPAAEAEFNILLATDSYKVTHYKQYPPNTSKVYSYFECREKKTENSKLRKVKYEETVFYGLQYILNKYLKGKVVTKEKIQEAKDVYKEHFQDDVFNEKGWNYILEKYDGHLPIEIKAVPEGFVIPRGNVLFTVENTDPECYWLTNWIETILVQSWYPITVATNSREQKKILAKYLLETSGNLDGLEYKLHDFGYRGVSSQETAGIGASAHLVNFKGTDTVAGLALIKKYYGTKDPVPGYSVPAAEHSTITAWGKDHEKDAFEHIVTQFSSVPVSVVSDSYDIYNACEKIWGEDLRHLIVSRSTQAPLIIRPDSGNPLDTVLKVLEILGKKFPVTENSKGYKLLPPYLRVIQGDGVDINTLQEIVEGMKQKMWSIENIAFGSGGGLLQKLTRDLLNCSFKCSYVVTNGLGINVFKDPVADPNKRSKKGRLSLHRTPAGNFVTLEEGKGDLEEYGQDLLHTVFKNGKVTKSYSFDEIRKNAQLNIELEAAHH
protocolText: NAMPT enzyme activity assay coupled with NMNAT1 and ADH (NADH fluorescence)
conditionParameters: AUC of dose-response curve (0.1, 0.3, 1, 3, 10 μM) relative to AUC of NAT (NAT = 1); 1 μM NAMPT, 200 μM NAM
Please note: t applies when Relative activation of NAMPT activity is -0.2 or greater, and f applies otherwise.

molecule | class
CC(C)(C)c1cccc(C(C)(C)C)c1OCC(=O)Nc1ccc(O)cc1 [Compound 18] | t
O=C(COc1ccccc1C(F)(F)F)Nc1ccc(O)cc1 [Compound 23] | t
CC(C)(C)c1ccccc1OCC(=O)Nc1ccccc1 [Compound 2] | f
CC(C)(C)c1cc(C#N)ccc1OCC(=O)Nc1ccc(O)cc1 [Compound 66] | t
CC(=O)c1cc(NC(=O)COc2ccccc2C(C)(C)C)ccc1O [Compound 46] | t
CC(C)(C)c1cccc(CNC(=O)Nc2ccc(O)cc2)c1 [Compound 20] | t
Cc1cc(O)ccc1NC(=O)COc1ccccc1C(C)(C)C [Compound 43] | t
CC(C)(C)c1cccc(OCC(=O)NCc2ccc(O)cc2)c1 [Compound 22] | f
CC(C)(C)c1ccccc1OCC(=O)Nc1ccc(O)c(C(F)(F)F)c1 [Compound 39] | t
CC(C)(C)c1ccccc1OCC(=O)Nc1ccc(O)cc1C(=O)O [Compound 35] | t
CC(C)(C)c1ccccc1OCC(=O)Nc1ccccc1O [Compound 4] | t
CC(C)(C)c1ccc(OCC(=O)Nc2ccc(O)cc2)cc1 [Compound 14] | t
COC(=O)c1ccc(C(C)(C)C)c(OCC(=O)Nc2ccc(O)cc2)c1 [Compound 62] | t
CC(C)(C)c1cccc(OCC(=O)Nc2ccc(O)cc2)c1 [Compound 13] | t
CC(C)(C)c1ccccc1OCC(=O)Nc1ccc(O)c(Cl)c1 [Compound 42] | t
CC(C)(C)c1ccccc1OCC(=O)Nc1ccc(F)cc1 [Compound 9] | f
CC(C)(C)c1ccccc1OCC(=O)Nc1ccc(O)cc1C(F)(F)F [Compound 38] | t
CC(C)(C)c1ccccc1OCC(=O)Nc1ccc(O)cn1 [Compound 49] | t
CC(C)(C)c1cc(O)ccc1OCC(=O)Nc1ccc(O)cc1 [Compound 52] | t
CC(C)(C)c1ccccc1OCC(=O)Nc1ccc(O)cc1CO [Compound 50] | t
CC(C)(C)c1cc(Cl)ccc1OCC(=O)Nc1ccc(O)cc1 [Compound 57] | t
CC(C)(C)c1ccccc1OCC(=O)Nc1ccc(O)c(O)c1 [Compound 37] | t
CC(C)(C)c1ccccc1OCC(=O)Nc1ccc(N)cc1 [Compound 30] | t
CC(C)(C)c1ccccc1OCC(=O)Nc1ccc(O)cc1Cl [Compound 36] | t
CC(C)(C)c1cccc(CO)c1OCC(=O)Nc1ccc(O)cc1 [Compound 58] | t
COC(=O)c1cc(NC(=O)COc2ccccc2C(C)(C)C)ccc1O [Compound 45] | f
CCOC(=O)c1ccc(NC(=O)COc2ccccc2C(C)(C)C)cc1 [Compound 6] | t
COc1cc(NC(=O)COc2ccccc2C(C)(C)C)ccc1O [Compound 44] | t
Cc1cccc(OCC(=O)Nc2ccc(O)cc2)c1 [Compound 19] | t
CC(C)(C)c1ccc(C(=O)O)cc1OCC(=O)Nc1ccc(O)cc1 [Compound 64] | t
O=C(COc1ccccc1-c1ccccc1)Nc1ccc(O)cc1 [Compound 17] | t
CC(C)(C)c1cc(Br)cc(Br)c1OCC(=O)Nc1ccc(O)cc1 [Compound 60] | t
CC(C)(C)c1ccccc1OCC(=O)Nc1ccc(C#N)cc1 [Compound 32] | f
O=C(COc1ccccc1)Nc1ccc(O)cc1 [Compound 16, N-(4-hydroxyphenyl)-2-phenoxyacetamide] | t
Cc1ccc(NC(=O)COc2ccccc2C(C)(C)C)cc1 [Compound 10] | t
CC(C)(C)c1ccccc1OCC(=O)Nc1ccc(CO)cc1 [Compound 28] | f
